test system: Sod1 mRNA; experiment: Sod1 mRNA knockdown in mouse lung after intranasal administration (RT-qPCR); format: in vivo; details: single intranasal 1 mg/kg, Day 10, relative to PBS
In the oligonucleotide strings, read from the 5' end, every base follows the letter of its sugar. An asterisk marks phosphorothioate; unmarked linkages are phosphodiester. Other units and linkages are bracketed, terminal groups are in braces. A string of capitals states the bases alone. {Q410} = αvβ6 integrin ligand conjugate, (S,R) stereochemistry, phosphorothioate-linked; {Q411} = αvβ6 integrin ligand conjugate, (R,R) stereochemistry variant; {L352} = αvβ6 integrin ligand conjugate, (S,R) stereochemistry; {L353} = αvβ6 integrin ligand conjugate, (S,S) stereochemistry; {L354} = αvβ6 integrin ligand conjugate; {VP} = (E)-vinylphosphonate; m = 2'-O-methyl; f = 2'-fluoro
% Sod1 Remaining reference

[
  {
    "substance": "AD-1481901.1: \"3′,5′ is better than the triple (AD-1481899 vs AD-1481901 as matched pair of (S,R) stereochemistry)\" (sense {Q410}*mC*mAmUmUmUmUfAmAfUfCfCmUmCmAmCmUmCmUmAmA*mA*{L352}; antisense {VP}-mU*fU*mUmAmGfAmGfUfGmAmGmGmAfUmUfAmAmAmAmUmG*mA*mG; siRNA)",
    "% Sod1 Remaining (%)": 47.7
  },
  {
    "substance": "AD-1481899.1: \"3′,5′ is better than the triple (AD-1481899 vs AD-1481901 as matched pair of (S,R) stereochemistry)\" (sense mC*mA*mUmUmUmUfAmAfUfCfCmUmCmAmCmUmCmUmAmA*mA*{L354}; antisense {VP}-mU*fU*mUmAmGfAmGfUfGmAmGmGmAfUmUfAmAmAmAmUmG*mA*mG; siRNA)",
    "% Sod1 Remaining (%)": 60.0
  },
  {
    "substance": "AD-1481902.1: \"inhibition of Sod1 mRNA expression in mouse quadriceps, heart, liver, and lung 21 days after a single 2 mg/kg intravenous dose\" (sense {Q411}*mC*mAmUmUmUmUfAmAfUfCfCmUmCmAmCmUmCmUmAmA*mA*{L353}; antisense {VP}-mU*fU*mUmAmGfAmGfUfGmAmGmGmAfUmUfAmAmAmAmUmG*mA*mG)",
    "% Sod1 Remaining (%)": 77.2
  },
  {
    "substance": "AD-1481904.1: dsRNA agent targeting Sod1 conjugated to αvβ6 ligand: \"3′-monos (AD-1481903 (S,R) vs AD-1481904 (S,S))\" (sense mC*mA*mUmUmUmUfAmAfUfCfCmUmCmAmCmUmCmUmAmA*mA*{L353}; antisense {VP}-mU*fU*mUmAmGfAmGfUfGmAmGmGmAfUmUfAmAmAmAmUmG*mA*mG)",
    "% Sod1 Remaining (%)": 59.2
  }
]
